Target: T1, CRF2R; further: reference of the scale not given here
T1 sequence (Q13324 whole entry, species assumed, looked up): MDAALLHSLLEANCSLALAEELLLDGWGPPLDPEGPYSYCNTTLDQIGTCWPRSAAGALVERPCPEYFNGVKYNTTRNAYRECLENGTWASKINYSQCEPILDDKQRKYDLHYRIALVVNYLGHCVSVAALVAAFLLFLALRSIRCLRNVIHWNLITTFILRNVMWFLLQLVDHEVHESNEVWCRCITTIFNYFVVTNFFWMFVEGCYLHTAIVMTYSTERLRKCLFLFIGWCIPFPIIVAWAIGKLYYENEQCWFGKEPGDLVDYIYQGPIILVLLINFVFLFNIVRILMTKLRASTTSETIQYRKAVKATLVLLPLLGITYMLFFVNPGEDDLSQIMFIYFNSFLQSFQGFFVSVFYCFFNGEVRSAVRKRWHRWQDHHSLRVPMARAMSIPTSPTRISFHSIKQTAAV
Experiment: cell-based or functional assay
Ends that are not written are not given here.
VALUE KIND: CRF2R Emax % (%)
One number for each entry, in %.

Some binders with recorded CRF2R Emax %:
Which CRF2R Emax % value is on record for ZGPPISIDLPYHLLRKVIEIEKQEKEKQQAANNALLLATI (C-terminal amide) [SEQ ID NO 313] ?
95

Which CRF2R Emax % value is on record for IVLSLDVPIGLLQKMIEIEKQEKEKQQATTNARILARV-NH2 [SEQ ID NO 322] ?
96.5

For each of the items listed, what is its CRF2R Emax %?
1. ZGPPISIDVPYHLLRKVIEIEKQEKEKQQAANNARLLDTI (C-terminal amide) [SEQ ID NO 376]
2. IVLSLDVPIGLLQILLEQARHAAAHAAAHAQAHILAHV-NH2 [SEQ ID NO 367]
3. ZGPPISIDLPYWLLRKMIEIEKQEKEKQQAANNARLLARI (C-terminal amide) [SEQ ID NO 289]
4. ZGPPISIDVPFQLLRKMIEIEKQEKEKQQAANNRLLLDTI (C-terminal amide) [SEQ ID NO 256]
5. DNPSLSIDLPLILLRTLLELEKTQSQRERAEQNARIFDRV-NH2 [SEQ ID NO 337]
6. ZGPPISIDLPLYLLRKMIEIEKQEKEKQQATTNARILARV (C-terminal amide) [SEQ ID NO 353]
7. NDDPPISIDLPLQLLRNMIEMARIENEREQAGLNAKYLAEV-NH2 [SEQ ID NO 270]
8. ZGPPISIDLPTWLLRKVIEIEKQEKEKQQAANNRLLLDTI (C-terminal amide) [SEQ ID NO 284]

[100, 18, 97.3, 100, 86.7, 89.9, 19.3, 100]

For each of the items listed, what is its CRF2R Emax %?
1. ZGPPISIDLPTYLLRKMIEIEKQEKEKQQAANNALLLDTI (C-terminal amide) [SEQ ID NO 232]
2. ZGPPISIDVPYWLLRKVIEIEKQEKEKQQAANNARLLARI (C-terminal amide) [SEQ ID NO 373]

1. 100
2. 100
